Origin of the recorded values: the supplement of paper PMC10949913

Tested on: NCI-H295R
Assay explanation: area under concentration-response curve (viability) (AUC (a.u.)); higher = less active
Condition: 48 h
Readout kind: area under concentration-response curve
Quick one: just the number, no unit, thanks!

I'd like to know its area under concentration-response curve. The molecule in question is CC1(C)OCCn2c1nc1c(N3CCOCC3)nc(-c3cnc(N)nc3)nc12
430

I'd like to know its area under concentration-response curve. The molecule in question is CN(C)CC/C=C1/c2ccccc2COc2ccc(CC(=O)O)cc21
509

I'd like to know its area under concentration-response curve. The molecule in question is COc1ccc(CC2c3cc(OC)c(OC)cc3CC[N+]2(C)CCC(=O)OCCCCCOC(=O)CC[N+]2(C)CCc3cc(OC)c(OC)cc3C2Cc2ccc(OC)c(OC)c2)cc1OC (centres undefined)
474

I'd like to know its area under concentration-response curve. The molecule in question is Cc1onc(-c2ccccc2)c1-c1ccc([S+](N)(=O)[O-])cc1
535

====

Tested on: CU-ACC1
Assay explanation: area under concentration-response curve (viability) (AUC (a.u.)); higher = less active
Condition: 48 h
Readout kind: area under concentration-response curve
Quick one: just the number, no unit, thanks!

I'd like to know its area under concentration-response curve. The compound in question is CC1=CC=C2\N=C/3N(CC[C@@]3(O)C(=O)C2=C1)C4=CC=CC=C4
537

I'd like to know its area under concentration-response curve. The compound in question is COc1cc(OCc2cccc(-c3ccccc3)c2C)cc(OC)c1CN1CCCC[C@H]1C(=O)O
444

I'd like to know its area under concentration-response curve. The compound in question is Cc1csc(NC(=O)c2sc3nc4c(c(C(F)(F)F)c3c2N)CCC4)n1
441

I'd like to know its area under concentration-response curve. The compound in question is C[C@H]([C@H]1C\C(=C(CO)/C(=O)O1)C)[C@H]2CC[C@H]3[C@@H]4C[C@H]5O[C@]56[C@@H](O)\C=C/C(=O)[C@]6(C)[C@H]4CC[C@]23C
270

I'd like to know its area under concentration-response curve. The compound in question is CCCCNc1ncc2c(-c3ccc(F)cc3)nn(C[C@H]3CC[C@H](N)CC3)c2n1
523

I'd like to know its area under concentration-response curve. The compound in question is Cc1ccc(N[S+](=O)([O-])c2cccc(C#N)c2)c2[nH]cc(C#N)c12
451

I'd like to know its area under concentration-response curve. The compound in question is C[C@@H]1CC2=C(C=C3OCOC3=C2)C(=N\N1C(C)=O)/C4=CC=C(N)C=C4
394

I'd like to know its area under concentration-response curve. The compound in question is O=C(CC12CC3CC(CC(C3)C1)C2)Nc1cccc2nc(NCCNCCO)ccc12
473

I'd like to know its area under concentration-response curve. The compound in question is COc1ccccc1[C@H](c1cccc2ccccc12)[C@@](C)(C#N)C(=O)N1CCC(c2cccc(C(F)(F)F)c2)CC1
566

I'd like to know its area under concentration-response curve. The compound in question is Cc1cnc(C(=O)NCCc2ccc([S+](=O)([O-])NC(=O)NC3CCCCC3)cc2)cn1
355

I'd like to know its area under concentration-response curve. The compound in question is NCCc1c[nH]cn1
416

I'd like to know its area under concentration-response curve. The compound in question is COCCOc1ccc2c(c1)ncn2-c1ccc2cccc(N3CCC(N)CC3)c2n1
409

I'd like to know its area under concentration-response curve. The compound in question is CC1(C)CC(O)CC(C)(C)N1[O]
517

I'd like to know its area under concentration-response curve. The compound in question is CCN(CCCOc1ccc2c(Nc3cc(CC(=O)Nc4cccc(F)c4)[nH]n3)ncnc2c1)CCOP(=O)(O)O
471

I'd like to know its area under concentration-response curve. The compound in question is CC(C)C[C@@H](C=O)NC(=O)[C@H](CC(C)C)NC(=O)[C@H](CC(C)C)NC(=O)OCc1ccccc1
374

I'd like to know its area under concentration-response curve. The compound in question is O=C(NC1CC1)c1cccc(-c2ccc3c(NC(=O)C4CC4)n[nH]c3c2)c1
495

I'd like to know its area under concentration-response curve. The compound in question is CC(C)OC(=O)C(C(=O)OC(C)C)=C1S\C=C/S1
517

I'd like to know its area under concentration-response curve. The compound in question is N[S+]([O-])(=O)C1=C(Cl)C=C2\N=C/N[S+]([O-])(=O)C2=C1
548

I'd like to know its area under concentration-response curve. The compound in question is COc1cc(C(=O)N2CCC(N3CCN(C)CC3)CC2)ccc1Nc1ncc2c(n1)N(C)c1ccccc1C(=O)N2C
377

I'd like to know its area under concentration-response curve. The compound in question is COc1ccc(Cc2ccc(NC(N)=O)cc2)cc1-c1cccc(Cl)c1
480

I'd like to know its area under concentration-response curve. The compound in question is C[C@@H]1CC(=O)Nc2cccc(-c3cnn(C(C)(C)C)c3)c2N1
551

I'd like to know its area under concentration-response curve. The compound in question is CO[C@@]12[C@H](COC(N)=O)C/3=C(N1C[C@@H]4N[C@H]24)/C(=O)/C(=C(N)\C3=O)C
378

I'd like to know its area under concentration-response curve. The compound in question is C=CC(=O)N1C[C@H](Nc2ncnc3[nH]ccc23)CC[C@@H]1C
587

I'd like to know its area under concentration-response curve. The compound in question is COc1ncc(-c2ccc3nccc(-c4ccnnc4)c3c2)cc1N[S+](=O)([O-])c1ccc(F)cc1F
362

I'd like to know its area under concentration-response curve. The compound in question is O=C(Nc1cccnc1)c1cc(-c2ccnc(F)c2)ccc1OCc1ccccc1
514

I'd like to know its area under concentration-response curve. The compound in question is CCOc1cc(N)c(Cl)cc1C(=O)NCC1CN(Cc2ccc(F)cc2)CCO1 (stereo unspecified)
554

I'd like to know its area under concentration-response curve. The compound in question is CC(C(C)N1CC(=O)NC(=O)C1)N1CC(=O)NC(=O)C1 (stereo unspecified)
488

I'd like to know its area under concentration-response curve. The compound in question is O=C1NCCc2[nH]c(-c3ccncc3)cc21
338

I'd like to know its area under concentration-response curve. The compound in question is CCN1CCN(Cc2ccc(Nc3ncc(F)c(-c4cc(F)c5nc(C)n(C(C)C)c5c4)n3)nc2)CC1
463

I'd like to know its area under concentration-response curve. The compound in question is CC(C)=CCC/C(C)=C/CC/C(C)=C/CSc1ccccc1C(=O)O
527

I'd like to know its area under concentration-response curve. The compound in question is COc1cc(OC)cc(N2CCN(C(=O)Nc3nc4cc(F)ccc4nc3OC)CC2)c1
503

I'd like to know its area under concentration-response curve. The compound in question is N=c1c2c(-c3ccccc3)c(-c3ccccc3)n(Cc3ccccc3)c2ncn1[C@H]1CC[C@H](O)CC1
341

I'd like to know its area under concentration-response curve. The compound in question is COc1ccc([C@@H]2CNC(=O)C2)cc1OC1CCCC1
432

I'd like to know its area under concentration-response curve. The compound in question is O=C(/C=C/c1ccc(Cl)cc1)N1CCC2(CC1)CN(Cc1ccc(Cl)c(Cl)c1)C(=O)O2
432

I'd like to know its area under concentration-response curve. The compound in question is CCOC(=O)N1CCN(/[N+]([O-])=N/Oc2ccc([N+](=O)[O-])cc2[N+](=O)[O-])CC1
544

I'd like to know its area under concentration-response curve. The compound in question is C[C@H](NC(=O)Cc1cc(F)cc(F)c1)C(=O)N[C@@H]1C(=O)N(C)c2ccccc2-c2ccccc21
516

====

Tested on: NCI-H295R
Assay explanation: area under concentration-response curve (viability) (AUC (a.u.)); higher = less active
Condition: 48 h
Readout kind: area under concentration-response curve
Quick one: just the number, no unit, thanks!

I'd like to know its area under concentration-response curve. The compound in question is O=C(NO)c1cnc(NC2(c3ccccc3)CC2)nc1
465

I'd like to know its area under concentration-response curve. The compound in question is Cc1c(O)cccc1C(=O)NC(CSc1ccccc1)C(O)CN1CC2CCCCC2CC1C(=O)NC(C)(C)C (stereo not given)
561

I'd like to know its area under concentration-response curve. The compound in question is COc1ccccc1N1CCN(CC(O)COc2cccc3ccccc23)CC1 (stereo not given)
501

I'd like to know its area under concentration-response curve. The compound in question is O=[S+]([O-])(F)Cc1ccccc1
517

I'd like to know its area under concentration-response curve. The compound in question is CC(C)(C)c1cnc(CSc2cnc(NC(=O)C3CCNCC3)s2)o1
387
